# tested system: pan-HDAC
# procedure text: In vitro enzyme inhibition assay - HDAC (HDAC-Glo I/II), pan-HDAC
# Format: biochemical
Where a name gives a salt, the structure may show the parent alone.
reported metric: IC50
Please make sure the unit comes right after the number.

Find the recorded IC50 belonging to COc1ccc(-c2cnc(N3CCC(NCc4ccc(/C=C/C(=O)NO)cc4C)CC3)c(C#N)c2-c2ccc(C#N)c(F)c2)cc1O [Example 211, formate] and report it.
2.04 nM

Which IC50 reading was recorded for the compound CN(C)c1ncc(-c2c(OCCCCCCC(=O)NO)cc(N3CCC(N)CC3)nc2-c2ccc(C#N)c(F)c2)cn1 [Example 13, formate] ?
3.32 nM

# IC50 lookup, item CC(NC1CCN(c2ncc(-c3ccc(OCC(C)(C)O)c(O)c3)c(-c3ccc(C#N)c(F)c3)c2C#N)CC1)c1ccc(/C=C/C(=O)NO)cc1 (stereo not drawn) [Example 235, formate]
8.01 nM
